- experimental-system: TTLL6 (51-502) (Mus musculus, UniProt A4Q9E8, C179A/H362I/Q180R)
- Sequence (A4Q9E8 51-502 C179A/Q180R/H362I): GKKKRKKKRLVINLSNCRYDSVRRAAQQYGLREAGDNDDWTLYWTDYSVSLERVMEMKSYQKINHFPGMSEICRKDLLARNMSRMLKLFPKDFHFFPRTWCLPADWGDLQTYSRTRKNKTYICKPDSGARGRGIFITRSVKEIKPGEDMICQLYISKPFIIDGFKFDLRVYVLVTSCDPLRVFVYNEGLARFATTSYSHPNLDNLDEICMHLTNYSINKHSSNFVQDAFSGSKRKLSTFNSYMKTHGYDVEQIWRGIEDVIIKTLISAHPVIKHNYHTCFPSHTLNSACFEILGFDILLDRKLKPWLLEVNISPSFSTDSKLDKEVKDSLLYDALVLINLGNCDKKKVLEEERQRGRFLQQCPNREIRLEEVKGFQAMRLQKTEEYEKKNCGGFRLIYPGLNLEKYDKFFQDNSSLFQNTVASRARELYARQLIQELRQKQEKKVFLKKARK
- experiment-description: [3H]-glutamate transfer to taxol-stabilized brain microtubules, filter assay
metric-name: IC50 (µM)

compound	metric-name	recorded-number
CCNC(=O)[C@H](CCP(=O)(O)CC(CCC(=O)O)C(=O)O)NC(C)=O (mixture of isomers)	IC50	3.5

I = CC(=O)NC(CCC(=O)O)P(=O)(O)CC(CCC(=O)O)C(=O)O (mixture of isomers)
II = CC(=O)N[C@@H](CCP(=O)(O)CC(CCC(=O)O)C(=O)O)C(=O)O (mixture of isomers)
Q: Input pair: I , II . Output: entry with lower IC50. Pick one and reply with its label.
A: II
(II: 2.5 µM, I: 5.4 µM)
